test: Half life in New Zealand white rabbit eye at 2 mg/ml, administered via ivt injection by HPLC analysis
Format: ADME, tissue-based, Oryctolagus cuniculus
condition parameters: topical or ocular
readout: half-life (h)
Note: unit h is implicit; provide only the numeric part.

Query: Form field: reported half-life of CC(=O)N[C@H]1CSCc2cc3cc(c2)CSC[C@H](NC(=O)[C@H](CCCCNC(=N)N)NC(=O)[C@H](Cc2ccc(O)cc2)NC(=O)[C@@H]2CCN2C(=O)[C@H](Cc2ccccc2)NC(=O)[C@H](CO)NC1=O)C(=O)N[C@@H](C)CN[C@@H](Cc1cnc[nH]1)C(=O)N[C@@H](CCC(N)=O)C(=O)N[C@@H](CC(=O)O)C(=O)N[C@@H](CC(C)C)C(=O)N[C@H](C(=O)O)CSC3
Result: 39

Now for another entry.
Query: Form field: reported half-life of CC[C@H](C)[C@@H]1NC(=O)[C@H](CC(=O)O)NC(=O)[C@@H]2CCCN2C(=O)[C@H](Cc2ccc(O)cc2)NC(=O)[C@H](Cc2ccc(O)cc2)NC(=O)[C@H](C(C)C)NC(=O)[C@@H]2CSCc3cc(cc(c3)CSC[C@@H](C(=O)N[C@@H](C)C(=O)N(C)CC(=O)N(C)CC(=O)N(C)CC(=O)N[C@H](CCCNC(=N)N)C(=O)N[C@H](CCCNC(=N)N)C(=O)O)NC1=O)CSC[C@H](NC(C)=O)C(=O)N[C@@H](CO)C(=O)N[C@@H](Cc1ccccc1)C(=O)N1CCC1C(=O)N[C@@H](Cc1ccc(O)cc1)C(=O)N[C@@H](CCCCNC(=N)N)C(=O)N2 (some centres not stated)
Result: 22

----------
test: Volume of distribution at steady state in Sprague-Dawley rat at 5 mg/kg, iv measured up to 240 mins post dose by LC-MS/MS analysis
Type: ADME, organism-based
condition parameters: in vivo, read-out: Vdss
readout: Vd
# answer = value followed by unit

Query: Form field: reported Vd of CC(=O)N[C@H]1CSCc2cc3cc(c2)CSC[C@H](NC(=O)[C@H](CCCCNC(=N)N)NC(=O)[C@H](Cc2ccc(O)cc2)NC(=O)[C@@H]2CCN2C(=O)[C@H](Cc2ccccc2)NC(=O)[C@H](CO)NC1=O)C(=O)N[C@@H](C)CN[C@@H](Cc1cnc[nH]1)C(=O)N[C@@H](CCC(N)=O)C(=O)N[C@@H](CC(=O)O)C(=O)N[C@@H](CC(C)C)C(=O)N[C@H](C(=O)O)CSC3
Result: 0.44 L/kg

----------
test: Drug level in New Zealand white rabbit ipsialateral eye vitreous humor at 2 mg/ml, administered via ivt injection at early time point measured up to 100 hrs by LC-MS/MS analysis
Format: ADME, tissue-based, Oryctolagus cuniculus
condition parameters: ipsilateral eye vitreous humor, topical or ocular, read-out: Drug uptake
readout: concentration at 100 h (µM)
Note: unit µM is implicit; provide only the numeric part.

Query: Form field: reported concentration at 100 h of CC(=O)N[C@H]1CSCc2cc3cc(c2)CSC[C@H](NC(=O)[C@H](CCCCNC(=N)N)NC(=O)[C@H](Cc2ccc(O)cc2)NC(=O)[C@@H]2CCN2C(=O)[C@H](Cc2ccccc2)NC(=O)[C@H](CO)NC1=O)C(=O)N[C@@H](C)CN[C@@H](Cc1cnc[nH]1)C(=O)N[C@@H](CCC(N)=O)C(=O)N[C@@H](CC(=O)O)C(=O)N[C@@H](CC(C)C)C(=O)N[C@H](C(=O)O)CSC3
Result: 45
